test: Oral pharmacokinetics in rats (plasma, brain, CSF); assay type: in vivo, Sprague Dawley rats; conditions: Sprague Dawley; rat, oral gavage, 10 mg/kg, plasma
value_kind: Cmax (ng/mL)
API: value field is a number in ng/mL; no unit string.

Recorded Cmax, per entry:
# get_value(readout='Cmax', item= CC(C)(C)OC(=O)N1CCC2(CCCNC2=O)CC1 )
3630

# get_value(readout='Cmax', item= O=C(O)C(F)(F)F.O=C1NCCCC12CCNCC2 [AA, 2,9-diazaspiro[5.5]undecan-1-one] )
325

Could you now consider this next molecule?
# get_value(readout='Cmax', item= CC(C)C(=O)N1CCC2(CCCNC2=O)CC1 )
8540

* * *

target: NMDAR2A (Homo sapiens); construct: expressed in transfected cells; host or cells: HEK cells (membrane extract); experiment: NMDAR agonist assay, [3H]MK-801 binding, NMDAR2A expressing HEK cell membranes; format: biochemical; conditions: 50 μM glutamate
Sequence (Q12879 23-1464, species assumed, other chains not shown): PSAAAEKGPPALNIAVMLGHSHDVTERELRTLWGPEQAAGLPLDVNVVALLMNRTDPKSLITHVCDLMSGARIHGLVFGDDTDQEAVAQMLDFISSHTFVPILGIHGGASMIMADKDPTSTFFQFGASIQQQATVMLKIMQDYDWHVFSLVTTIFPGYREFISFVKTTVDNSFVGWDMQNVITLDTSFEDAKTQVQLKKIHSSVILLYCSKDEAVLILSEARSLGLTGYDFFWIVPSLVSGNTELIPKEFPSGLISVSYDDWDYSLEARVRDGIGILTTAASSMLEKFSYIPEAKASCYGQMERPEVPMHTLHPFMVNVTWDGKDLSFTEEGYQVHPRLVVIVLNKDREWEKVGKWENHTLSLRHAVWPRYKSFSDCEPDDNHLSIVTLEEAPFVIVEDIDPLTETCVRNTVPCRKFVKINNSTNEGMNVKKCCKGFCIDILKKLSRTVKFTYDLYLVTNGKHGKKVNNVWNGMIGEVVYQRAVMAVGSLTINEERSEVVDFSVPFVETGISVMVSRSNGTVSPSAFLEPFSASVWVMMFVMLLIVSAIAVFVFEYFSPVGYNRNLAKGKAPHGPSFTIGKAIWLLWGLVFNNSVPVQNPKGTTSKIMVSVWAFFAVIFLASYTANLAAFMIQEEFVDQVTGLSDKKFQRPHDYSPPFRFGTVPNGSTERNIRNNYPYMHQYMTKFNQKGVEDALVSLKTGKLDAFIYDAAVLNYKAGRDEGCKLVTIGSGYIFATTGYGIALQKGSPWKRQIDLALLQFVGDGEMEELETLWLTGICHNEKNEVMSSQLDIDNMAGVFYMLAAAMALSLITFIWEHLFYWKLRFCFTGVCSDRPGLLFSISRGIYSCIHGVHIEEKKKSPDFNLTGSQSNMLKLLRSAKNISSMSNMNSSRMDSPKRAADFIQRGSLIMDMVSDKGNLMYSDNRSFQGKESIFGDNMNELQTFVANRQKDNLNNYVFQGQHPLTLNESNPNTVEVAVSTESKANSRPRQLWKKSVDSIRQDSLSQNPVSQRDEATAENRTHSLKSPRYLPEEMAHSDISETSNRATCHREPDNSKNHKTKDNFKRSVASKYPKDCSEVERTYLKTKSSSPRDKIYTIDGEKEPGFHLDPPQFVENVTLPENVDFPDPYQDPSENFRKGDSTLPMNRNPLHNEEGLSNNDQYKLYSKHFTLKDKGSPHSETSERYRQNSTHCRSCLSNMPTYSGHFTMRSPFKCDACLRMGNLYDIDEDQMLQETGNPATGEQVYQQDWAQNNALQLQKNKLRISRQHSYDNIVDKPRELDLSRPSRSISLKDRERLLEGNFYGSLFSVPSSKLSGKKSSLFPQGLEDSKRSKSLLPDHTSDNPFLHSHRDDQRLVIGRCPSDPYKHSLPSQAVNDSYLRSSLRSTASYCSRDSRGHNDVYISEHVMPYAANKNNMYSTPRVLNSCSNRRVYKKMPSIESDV
value_kind: NMDAR2A A: % maximal [3H]MK-801 binding relative to 1 mM glycine

# get_value(readout='NMDAR2A A: % maximal [3H]MK-801 binding relative to 1 mM glycine', item= O=C1NCCCCC12CCNCC2 [AG, 3,8-diazaspiro[5.6]dodecan-7-one] )
+ (<100%=+)

# get_value(readout='NMDAR2A A: % maximal [3H]MK-801 binding relative to 1 mM glycine', item= CC(C)(C)OC(=O)N1CCC2(CCCNC2=O)CC1 [AC] )
+ (<100%=+)

# get_value(readout='NMDAR2A A: % maximal [3H]MK-801 binding relative to 1 mM glycine', item= CC(C)C(=O)N1CCC2(CCCNC2=O)CC1 [Compound AD] )
+ (<100%=+)

* * *

assay: Oral pharmacokinetics in rats (plasma, brain, CSF); type: in vivo, Sprague Dawley rats; conditions: Sprague Dawley; rat, oral gavage, 10 mg/kg, plasma
value_kind: Tmax
Lab note: write values as number then unit, every time.

Recorded Tmax, per entry:
# get_value(readout='Tmax', item= CC(C)C(=O)N1CCC2(CCCNC2=O)CC1 )
19.8 min

# get_value(readout='Tmax', item= O=C(O)C(F)(F)F.O=C1NCCCC12CCNCC2 [AA, 2,9-diazaspiro[5.5]undecan-1-one] )
127 min

Further cases:
# get_value(readout='Tmax', item= CC(C)(C)OC(=O)N1CCC2(CCCNC2=O)CC1 )
15 min
